Each item that follows carries a reported GI50.
test system: SF-539; experiment: NCI tumour cell line growth inhibition, 48 h
Activity calls are given as the source filed them. Cut-off read from the data, not from the text of the source: active = GI50 up to about 1.1 µM and inactive = higher.

Sample answers from the record:
compound	assayed system	test readout	observed measurement
c1ccc2c(NCCCCCCCCNc3cccc4ccccc34)cccc2c1	SF-539	GI50	27 µM (inactive)
Cc1cc2nc(C#N)c(N3CCN(c4ccc([N+](=O)[O-])cc4)CC3)nc2cc1C	SF-539	GI50	26.1 µM (inactive)
COc1ccc(C)cc1Nc1nnc(-c2ccccc2N)s1	SF-539	GI50	82.8 µM (inactive)
O=C(CSCC(=O)N/N=C/c1ccc(F)cc1)N/N=C/c1ccc(F)cc1	SF-539	GI50	> 100 µM (inactive)
CSCC[C@@H](NC(=O)[C@H](CC(C)C)NC(=O)C(Cc1cnc[nH]1)NC(=O)CNC(=O)[C@@H](NC(=O)[C@H](C)NC(=O)[C@H](Cc1cn(C=O)c2ccccc12)NC(=O)[C@H](CCC(N)=O)NC(=O)[C@@H](N)CC(N)=O)C(C)C)C(N)=O (some centres not stated)	SF-539	GI50	> 100 µM (inactive)

Lookup: Give recorded GI50 with SF-539 for the following compound: CC1(Cl)CC2C(CC1Sc1nnnn1-c1ccccc1)C2(C)C (configuration not stated)
Found: > 100 µM (inactive)

Lookup: Same thing, different compound: CN1c2ccccc2C(=O)Nc2cnc(Cl)nc21
Found: 49.1 µM (inactive)

---

Each entry below carries its recorded GI50.
system: UACC-257; assay: NCI tumour cell line growth inhibition, 48 h
Active and inactive are the calls of the source. No stated cut-off is given here; in the data, active = GI50 up to about 1.1 µM and inactive = higher. Peptide text beside a SMILES is read from it. * marks the point of attachment. Boc = CC(C)(C)OC(=O)*

compound	GI50
C[n+]1c(-c2ccc(/C=N/NC(=S)N/N=C/c3ccc(-c4cn5ccsc5[n+]4C)cc3)cc2)cn2ccsc21	> 100 µM (inactive)

Lookup: Notebook entry, UACC-257 assay: GI50 of Clc1ccc(CCN2CCN(CCCc3ccccc3)CC2)cc1Cl = ?
Found: 17.1 µM (inactive)

Lookup: One more compound: CCc1c2c([nH]c(=S)c1C#N)CCC2
Found: > 100 µM (inactive)

Lookup: Same read-out for COc1cccc(C2C(C(=O)Nc3cc(=O)n(C)c(=O)n3C)=C(C)NC(C)=C2C(=O)Nc2cc(=O)n(C)c(=O)n2C)c1O ?
Found: > 100 µM (inactive)

Lookup: Input COC(=O)C(Cc1ccccc1)NC(=O)C(CS)NC(=O)OC(C)(C)C (stereo not drawn) (Boc-Cys-Phe-OMe; configuration not given here)
Found: > 100 µM (inactive)

Lookup: Also CCOC(=O)C(=C=Cc1cccs1)C(=O)c1ccccc1 ?
Found: 12.9 µM (inactive)

Lookup: Quick one: COC(=O)c1ccc(OCCn2nnc(C(=O)NN)c2C(=O)NN)cc1
Found: > 100 µM (inactive)

Lookup: Similarly, NC(=O)C(=O)n1ncc(Cl)c(Cl)c1=O ?
Found: 34 µM (inactive)

Lookup: Let us now turn to CCSC12CC3c4cccc5c4C(CN5C(=O)c4ccccc4)CC3(O1)N(C)C2=O (stereo not given)
Found: 29.4 µM (inactive)

Lookup: Entry COC(=O)C1(Cc2cccc(C)c2)Cc2c(C)cccc2C1=O (stereo not given) please
Found: 82.8 µM (inactive)

---

tested on: TK-10; experiment: NCI tumour cell line growth inhibition, 48 h
Activity calls are given as the source filed them. Rule as the data show it: active = GI50 up to about 1.1 µM and inactive = higher.
Listed compounds paired with reported GI50

Worked cases, GI50 given:
compound	assayed system	GI50
CC(C)(C)c1cc(Br)c(O)c(CN(Cc2cc(C(C)(C)C)cc(Br)c2O)C2CCCCC2)c1	TK-10	15.8 µM (inactive)
Nc1ncnc2c1ncn2C1OC(COP(=O)(O)CP(=O)(O)O)C(O)C1O (configuration not stated)	TK-10	> 100 µM (inactive)
Cc1ccc(SSCCCCCS(=O)O)cc1	TK-10	26.9 µM (inactive)
COC(=O)N1CC2(CO)C3CC=C(C(=O)Nc4ccccc4Br)C2C1C3Br (configuration not stated)	TK-10	> 50 µM (inactive)

Lookup: Need GI50 of O=C(COC(=O)c1cccc2c(=O)c3ccccc3[nH]c12)Nc1ccc(Cl)cc1 , thanks.
Found: 13.1 µM (inactive)

Lookup: Lookup CN(C)/N=N/c1ccc(S(N)(=O)=O)cc1
Found: > 100 µM (inactive)

Lookup: # repeat for c1ccc([P+](Cc2csnn2)(c2ccccc2)c2ccccc2)cc1
Found: > 100 µM (inactive)

Lookup: Same thing, different compound: NC(=O)CC(Nc1ncc2c(n1)-c1ccccc1OC2)C(=O)O (configuration not stated)
Found: > 100 µM (inactive)

Lookup: Query Cc1cc(C)c2nccc(NCCCN(C)C)c2c1[N+](=O)[O-] next
Found: 30.8 µM (inactive)

Lookup: COC1=CC(C2c3cc4c(cc3[C@@H](Nc3ccc(F)cc3)C3COC(=O)[C@H]23)OCO4)=CC(=O)C1=O (some centres not stated) ?
Found: 19.2 µM (inactive)

---

test system: EKVX; experiment: NCI tumour cell line growth inhibition, 48 h
Calls of active or inactive are those of the source. Cut-off read from the data, not from the text of the source: active = GI50 up to about 1.1 µM and inactive = higher.
Below: a set of entries, each annotated with reported GI50.

Solved entries (count: 5):
molecule	test readout	observed measurement
O=C(O)c1cc(Cl)cc(Cc2cc(Cl)cc(C(=O)O)c2O)c1O	GI50	> 100 µM (inactive)
CCSC12CC3c4cccc5c4C(CN5C(=O)c4ccccc4)CC3(O1)N(C)C2=O (stereo unspecified)	GI50	24.2 µM (inactive)
O=C1CC(c2ccccc2)NCCCCN2CC(CN1)C(C(O)c1ccccc1)C2=O (stereo unspecified)	GI50	> 100 µM (inactive)
CCCC(O)c1cn(-c2cccc(S(=O)(=O)O)c2)nn1 (stereo unspecified)	GI50	> 100 µM (inactive)
Nc1nc(Cl)cc(NCC2(CO)CC(CCCc3ccccc3)C2)n1 (stereo unspecified)	GI50	> 25.3 µM (inactive)

Lookup: What value of GI50 has been reported for the following molecule? Cc1ccc(SSCCCCCS(=O)O)cc1
Found: 45.3 µM (inactive)

---

system: XF498; experiment: NCI tumour cell line growth inhibition, 48 h
The source made the active and inactive calls. Cut-off read from the data, not from the text of the source: active = GI50 up to about 1.1 µM and inactive = higher.
test readout: GI50

Lookup: Suppose we examine the molecule N#CC(C#N)=C1SCC(=O)CS1 ; what GI50 value has been reported?
Found: > 100 µM (inactive)

Lookup: Next record, please: CCOc1ccc(NC(=O)CC2C(=O)Nc3ccccc3[S+]2[O-])cc1 (stereo not given)
Found: 38.8 µM (inactive)

---

system: CCRF-CEM; assay: NCI tumour cell line growth inhibition, 48 h
The source made the active and inactive calls. Rule as the data show it: active = GI50 up to about 1.1 µM and inactive = higher.
// values below are reported GI50

Worked cases, answers included:
molecule	assayed system	GI50
CCOC(=O)c1sc2[n+](c1C)C(=O)/C(=C/c1ccc([N+](=O)[O-])cc1)S2	CCRF-CEM	> 100 µM (inactive)
Cc1ccc(S(=O)(=O)NNC2(NS(=O)(=O)c3ccc(Cl)cc3)C(Cl)=C(Cl)C(=O)c3ccccc32)cc1 (stereo not given)	CCRF-CEM	22.9 µM (inactive)
CC(C)/C(Cl)=N/OC(=O)Nc1cccc(C(F)(F)F)c1	CCRF-CEM	0.532 µM (active)
CCOC(=O)C(=C=Cc1cccs1)C(=O)c1ccccc1	CCRF-CEM	29.1 µM (inactive)
CCC(C)N1CN(c2ccccc2)C2(CCN(CC3COc4ccccc4O3)CC2)C1=O (stereo not given)	CCRF-CEM	19.9 µM (inactive)
O=C(O)c1ccc([I+]c2ccccc2)cc1	CCRF-CEM	> 100 µM (inactive)

Lookup: API: value(readout= GI50, system= CCRF-CEM, query= CCCCCCCCCCCCCCCCCCNC(=S)NC=C1C(=O)c2ccccc2C1=O )
Found: 5.02 µM (inactive)

---

test system: K562; test: NCI tumour cell line growth inhibition, 48 h
The source made the active and inactive calls. Cut-off read from the data, not from the text of the source: active = GI50 up to about 1.1 µM and inactive = higher.
Use one of these outcomes when replying: active, inactive

Use these answered entries as a reference point.
molecule	label class
COC(=O)C1=C(OC)[C@H]2C#C/C=C\C#C[C@@H]3Nc4c(cc(O)c5c4C(=O)c4ccccc4C5=O)[C@]24O[C@@]34[C@H]1C	active
CC(=O)O[C@H]1CCc2c(cc(N)c3c2C(=O)C[C@]2(C)C([C@H](C)CCCC(C)C)CCC32C)C1(C)C (stereo not given in full)	inactive
S=c1[nH]n2c(CCCCCCCCc3nnc4sc(=S)[nH]n34)nnc2s1	inactive

Lookup: Fill in: this test's call for O=Cc1ccc2c(c1)CC1(Cc3ccccc3C1)C2 is ___
Found: inactive

Lookup: Let us now turn to COc1cc(-c2ccc(Nc3ccccc3C(=O)O)c(OC)c2)ccc1Nc1ccccc1C(=O)O
Found: inactive

Lookup: Param item: c1ccc2c(c1)Sc1nccc3ccnc-2c13
Found: inactive

Lookup: Thanks! And CCCCSCCC(N)P(=O)(O)O (stereo not given) ?
Found: inactive

Lookup: Query O=C(O)Cc1ccc(N2N=C(c3ccccc3)CC2=O)cc1 next
Found: inactive

Lookup: Also, c1ccc2c(CC3NCCN3)cccc2c1 please.
Found: inactive

Lookup: Same again, this time with Cc1cc2c(cc1C)NC(=O)C(NC(=O)/C=C/c1ccccc1)C=N2 (stereo not given)
Found: inactive
